biological target: FE4 Myzus persicae esterases (Myzus persicae); construct: would be utilised for the purified esterases from aphids; from tissue; host or cells: aphids (Myzus persicae), purified esterase; experiment: Inhibition of esterase FE4, 4-nitrophenyl acetate model substrate assay; format: biochemical; conditions: purified FE4, 2.5 μL of 10 mM compound in acetone, 10 min incubation, substrate 4-nitrophenyl acetate 0.8 mM, read at 405 nm
Sequence (P35502 24-564): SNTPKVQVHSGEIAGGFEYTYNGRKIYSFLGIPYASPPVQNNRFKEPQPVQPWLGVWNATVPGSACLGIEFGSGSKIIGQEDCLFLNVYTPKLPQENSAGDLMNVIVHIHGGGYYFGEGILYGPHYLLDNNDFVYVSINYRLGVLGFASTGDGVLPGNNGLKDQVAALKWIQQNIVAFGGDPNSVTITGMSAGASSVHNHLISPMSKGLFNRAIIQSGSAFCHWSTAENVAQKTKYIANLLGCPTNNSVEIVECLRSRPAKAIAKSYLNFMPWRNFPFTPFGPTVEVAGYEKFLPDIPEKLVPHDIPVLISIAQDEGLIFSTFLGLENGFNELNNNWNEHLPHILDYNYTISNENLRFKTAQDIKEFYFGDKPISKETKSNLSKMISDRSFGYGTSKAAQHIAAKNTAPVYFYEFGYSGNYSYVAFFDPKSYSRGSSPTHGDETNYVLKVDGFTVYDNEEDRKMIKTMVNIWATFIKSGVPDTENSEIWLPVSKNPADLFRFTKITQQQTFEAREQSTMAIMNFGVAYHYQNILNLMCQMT
So I've got a bunch of molecules here, and I need their remaining activity at 10000 µM (stock) values.
Give bare numbers, in %.

Examples with answers:
[[record]]
moleculesmiles = "C#CCOCc1cc(CCC)cc2c1OCC2"
assayedsystem = "FE4 Myzus persicae esterases (Myzus persicae)"
metricname = "remaining activity at 10000 µM (stock)"
unitabbreviation = "%"
measured = 23.9

[[record]]
moleculesmiles = "CC#CCOCc1cc(CCC)cc2c1OCC2"
assayedsystem = "FE4 Myzus persicae esterases (Myzus persicae)"
metricname = "remaining activity at 10000 µM (stock)"
unitabbreviation = "%"
measured = 19.9

[[record]]
moleculesmiles = "CC#CCOCc1cc(CCCCCC)cc2c1OCC2"
assayedsystem = "FE4 Myzus persicae esterases (Myzus persicae)"
metricname = "remaining activity at 10000 µM (stock)"
unitabbreviation = "%"
measured = 35.4

[[record]]
moleculesmiles = "CC#CCOc1cc(CCCCCC)cc2c1OCC2"
assayedsystem = "FE4 Myzus persicae esterases (Myzus persicae)"
metricname = "remaining activity at 10000 µM (stock)"
unitabbreviation = "%"
measured = 24

[[record]]
moleculesmiles = "CC#CCOCc1cc(CCCC)cc2c1OCC2"
assayedsystem = "FE4 Myzus persicae esterases (Myzus persicae)"
metricname = "remaining activity at 10000 µM (stock)"
unitabbreviation = "%"
measured = 19.9


# map each molecule to its remaining activity at 10000 µM (stock)
1. C#CCOc1cc(CCCCCC)cc2c1OCC2
2. C#CCOCc1cc(CCCCCC)cc2c1OCC2

Data returned:
1. 29.8
2. 26.2

Data request: Looking for the measured remaining activity at 10000 µM (stock) of `C#CCOCc1cc(CCCC)cc2c1OCC2` , can you help?
Data returned: 18.4

Reference source for all entries: patent US10412961B2
